Tested on: H929 multiple myeloma cell line
Assay: Anti-proliferation assay (ATPLite, 72 h)
Format: cell-based, human
Design: key: S = lnfX·lnfY·ΣIdata(Idata−ILoewe), volume over Loewe additivity
Settings: PDE inhibitor crossed with HE-NECA; H929
property.name: synergy score
Respond using a number only.

Worked set:
INSERT INTO measurements (molecule, property_name, observed_result) VALUES
  ('CN(C(=O)CCCOc1ccc2[nH]c(=O)ccc2c1)C1CCCCC1 [Cilostamide]', 'synergy score', 0.28),
  ('CCCOc1ccccc1-c1nc2nn[nH]c2c(=O)[nH]1', 'synergy score', 0.13),
  ('COc1ccc(Cc2nn3c([C@@H](CCCc4ccccc4)[C@@H](C)O)nc(C)c3c(=O)[nH]2)cc1OC', 'synergy score', 3.71);

Please look at the following molecule next.
Req: Notebook: pull reported synergy score for H929 multiple myeloma cell line, entry `Cc1[nH]c(=O)c(C#N)cc1-c1ccncc1`
Resp: 0.15
